Answer each item with its documented ability of recombinant RTK ligand to confer resistance.
Tested on: six V600E BRAF melanoma cell lines
test.name: Screening of recombinant RTK ligands for ability to confer resistance to BRAFi (PLX4720) or MEKi (PD184352) (Table 4)
Format: cell-based, human
Design: scale not given here
test.parameters: G-361, PLX4720 - 2 uM, ligand 25 ng/ml
Keep it simple and answer with nothing but the number.

Record VEGF-C (protein, UniProt P49767 112-227, looked up) Vascular endothelial growth …: AHYNTEILKSIDNEWRKTQCMPREVCIDVGKEFGVATNTFFKPPCVSVYRCGGCCNSEGLQCMNTSTSYLSKTLFEITVPLSQGPKPVTISFANHTSCRCMSKLDVYRQVHSIIRR , field ability of recombinant RTK ligand to confer resistance: 0.92

Record flt-3 ligand (FL) (protein, UniProt P49771 27-235, looked up) Fms-related tyrosine kinase 3 …: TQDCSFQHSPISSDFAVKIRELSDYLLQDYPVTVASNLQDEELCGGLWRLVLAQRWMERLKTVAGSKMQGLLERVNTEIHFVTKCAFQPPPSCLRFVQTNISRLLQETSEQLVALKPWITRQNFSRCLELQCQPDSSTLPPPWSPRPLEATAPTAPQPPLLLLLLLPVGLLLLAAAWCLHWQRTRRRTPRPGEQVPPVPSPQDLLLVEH , field ability of recombinant RTK ligand to confer resistance: 0.88

Record GDNF (protein, UniProt P39905 78-211, looked up) Glial cell line-derived …: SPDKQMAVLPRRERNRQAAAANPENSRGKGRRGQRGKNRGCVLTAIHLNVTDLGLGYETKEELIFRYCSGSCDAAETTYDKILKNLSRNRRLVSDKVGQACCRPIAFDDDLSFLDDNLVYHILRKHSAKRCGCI , field ability of recombinant RTK ligand to confer resistance: 0.87

Record Ephrin-A4 (protein, UniProt P52798 26-170, looked up) Ephrin-A4: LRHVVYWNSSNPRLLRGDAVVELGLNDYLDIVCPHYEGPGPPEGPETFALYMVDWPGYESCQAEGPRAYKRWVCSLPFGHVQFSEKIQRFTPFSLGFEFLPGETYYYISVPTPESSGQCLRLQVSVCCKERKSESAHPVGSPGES , field ability of recombinant RTK ligand to confer resistance: 0.95

Record BDNF (protein, UniProt P23560 19-247, looked up) Neurotrophic factor BDNF …: APMKEANIRGQGGLAYPGVRTHGTLESVNGPKAGSRGLTSLADTFEHVIEELLDEDQKVRPNEENNKDADLYTSRVMLSSQVPLEPPLLFLLEEYKNYLDAANMSMRVRRHSDPARRGELSVCDSISEWVTAADKKTAVDMSGGTVTVLEKVPVSKGQLKQYFYETKCNPMGYTKEGCRGIDKRHWNSQCRTTQSYVRALTMDSKKRIGWRFIRIDTSCVCTLTIKRGR , field ability of recombinant RTK ligand to confer resistance: 0.89
